# Test system: A549
# Assay notes: NCI tumour cell line growth inhibition, 48 h
Calls of active or inactive are those of the source. Cut-off read from the data, not from the text of the source: active = GI50 up to about 1.1 µM and inactive = higher.
Outcome codes: T for active, F for inactive

• CC1CC2C(=O)N(c3ccccc3)C(=O)C2c2[nH]c3ccccc3c21 (stereo not given) = F
• Cn1cnc([N+](=O)[O-])c1Sc1nc2cc([N+](=O)[O-])ccc2[nH]1 = F
• COc1cc(C)c2c(=O)c3ccccc3n(C)c2c1 = F
• CCOC(=O)/C(=C/c1cccc(OC)c1)N(CC)CC = F
• CCCCCCCCCCCCCCCCCC[N+](C)(C)Cc1ccc(C[N+](C)(C)CCCCCCCCCCCCCCCCCC)cc1 = F
• C[N+]1([O-])CCC(O)(C2CC2)CC1 (stereo not given) = F
• Cc1ccccc1N/C(N)=N/C#N = F
• CCOC(=O)C1(C/C=C/CBr)Cc2ccccc2C1=O (stereo not given) = F
• CN(C)c1ccc(-c2c(C#N)c(O)n(NS(=O)(=O)c3ccccc3)c(=O)c2C#N)cc1 = F
• Nc1nc(=S)[nH]c2nc3c(c(-c4ccccc4)c12)CCCC3 = F
• O=NN(CCF)C(=O)NC1CCSCC1 = F
• COc1cc(/C=C/C(=O)Oc2ccc(NC(C)=O)cc2)ccc1C(=O)OCc1ccccc1 = F
• Clc1ccc2c(NCCNc3ccnc4cc(Cl)ccc34)ccnc2c1 = F
• CCCc1c(C(=O)OCC)[nH]c(-c2ccc(-c3[nH]c(C(=O)OCC)c(CCC)c3C(=O)OCC)o2)c1C(=O)OCC = F
• O=C(CC(c1ccccc1)C1C(=O)NC(=S)NC1=O)c1ccc([N+](=O)[O-])cc1 (stereo not given) = F
• CC(=O)NC1=C(NCC(C)(C)C)C(=O)c2ccccc2C1=O = F
• O=C(NCCCCCCCCNC(=O)c1cnc2ccccc2n1)c1cnc2ccccc2n1 = F
• Cc1ccccc1N(C)S(=O)(=O)c1ccccc1[N+](=O)[O-] = F
• NS(=O)(=O)c1ccc(NC(NC(=O)C(C(F)(F)F)C(F)(F)F)(C(F)(F)F)C(F)(F)F)cc1 = F
• Cc1oc(N)c(S(=O)(=O)c2cc3ccccc3[n+]([O-])c2N)c1C = F
• O=C(O)CCC1(CCC(=O)O)CCCCCCCCC(CCC(=O)O)(CCC(=O)O)C(=O)C1=O = F
• O=C(N/N=C\c1cccc2ccccc12)Nc1cccc2ccccc12 = F
• O=C1CCC(=O)c2ccccc2N1 = F
• CCOP(=O)(CCCC(O)CNc1nc(N)nc(Cl)c1/N=N/c1ccc(Cl)cc1)OCC (stereo not given) = F
• CCN(CC)C(=S)N/N=C(\C)c1cccc(C)n1 = T
• CCC(C(C)N1CC(=O)NC(=O)C1)N1CC(=O)NC(=O)C1 (stereo not given) = F
• COc1ccc(NC2=NCCO2)c2ccccc12 = F
• CCCCCC(CN1CCOCC1)C(=O)/C=C/c1ccccc1 (stereo not given) = F
• O=[N+]([O-])c1ccc(Nc2nc3ccccc3s2)cc1 = F
• C1COCCN1.S=C(S)N1CCOCC1 = F
• C#CCOCn1cc(C)c(=O)[nH]c1=O = F
• CC(C)CC(NC(=O)C(O)C(N)Cc1ccccc1)C(=O)O (stereo not given) = F
• CCN(CC)CCCOc1cc2c(cc1OC)C(=O)N1CCC[C@H]1C=N2 = F
• Cc1ccccc1NC(=O)C(=O)C1CN(c2ccccc2)N=C1N (stereo not given) = F
• Cn1cc(C(=O)c2nccc3c2cnc2ccccc23)ccc1=O = F
• CCOC(=O)c1c(O)cn2c1[nH]c1cccc3cccc2c31 = F
• C#CCSC(C=C=C)P(=O)(OC(C)C)OC(C)C (stereo not given) = F
• CN(CCO)c1nc(=O)c2c([nH]1)CCC2 = F
• [O-][n+]1ccccc1S = F
• C=C(CO)CC(O)c1cc(OC)ccc1OC (stereo not given) = F
• Sc1nnc(-c2cccnc2)[nH]1 = F
• Cc1cc(-n2c(/C=C/c3ccc(Cl)cc3)nc3cc(Cl)ccc3c2=O)on1 = F
• O=S(=O)(c1ccc(Br)cc1)n1c2ccc(Br)cc2c2nc3ccccc3nc21 = F
• C/C=C1/C[C@@H](C)[C@@](C)(O)C(=O)OCC2=CC[N+]3([O-])CC[C@@H](OC1=O)[C@@H]23 (stereo not given in full) [SENECIONINE N-OXIDE] = F
• COc1nc(O)c(N)c(NC2OC(CO)C(O)C(O)C2O)n1 (stereo not given) = F
